# measured.on: recombinant human mPGES-1 (Homo sapiens, UniProt O14684)
# Construct: made in house; host or cells: Rosetta E. coli (membrane/microsome fraction)
# Sequence (O14684 whole entry): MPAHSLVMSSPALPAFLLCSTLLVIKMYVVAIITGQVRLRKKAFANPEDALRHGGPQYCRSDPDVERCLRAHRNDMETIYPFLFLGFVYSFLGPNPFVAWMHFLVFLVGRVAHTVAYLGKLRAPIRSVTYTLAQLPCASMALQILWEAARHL
# assay.remarks: mPGES-1 HTRF assay (inhibition of PGE2 formation from PGH2)
# Assay type: biochemical
# assay.context: compound concentration of 10 μM, HTRF assay; read-out: % inhibition
# Method: The basis of the assay used is to measure the inhibition of microsomal prostaglandin E2 synthase-1 (mPGES-1) dependent prostaglandin (PG) E2 formation from PGH2 by different compounds. […] 4 μl of the total volume is transferred to a separate plate and diluted 750-fold in two separate steps before quantification of PGE2. […] After the over night incubation the fluorescence is measured by the use of an appropriate microplate reader. […]
measured.attribute: inhibition at 10 µM (%)
Dear colleague, please return just the value in %, with no unit written.

Solved entries (count: 4):
{"columns": ["compound", "reported"],
 "data": [
  ["Cn1c(Nc2cc(CNC(=O)OC(C)(C)C)ccc2Cl)nc2cc(C(=O)NCC3CCCCC3)ccc21", 93],
  ["CC1(C(=O)NCc2ccc(Cl)c(Nc3nc4cc(C(=O)N5CCCC5)ccc4[nH]3)c2)CCCCC1", 83],
  ["Cn1c(Nc2cc(CNC(=O)C3(C)CCCCC3)ccc2Cl)nc2cc(C(=O)NCCN3CCCCC3)ccc21", 95],
  ["Cn1c(Nc2cc(CNC(=O)C3(C)CCCCC3)ccc2Cl)nc2cc(C(=O)NCC3CCCO3)ccc21 (stereo not shown)", 98]
]}

Incoming: Quick one: give measured inhibition at 10 µM for `Cn1c(Nc2cc(CNC(=O)C3CCC(F)(F)CC3)ccc2Cl)nc2cc(C(=O)Nc3ccc(Br)cc3)ccc21`
Outgoing: 100

Incoming: Query inhibition at 10 µM for `CC1(C(=O)NCc2ccc(Cl)c(Nc3nc4cc(C(=O)NC5CCCC5)c(Cl)cc4n3C3CCCC3)c2)CCCCC1`
Outgoing: 100

Incoming: Give the value of inhibition at 10 µM reported for the following: `Cn1c(Nc2cc(CNC(=O)C3(CC4CC4)CCCC3)ccc2Cl)nc2cc(C(=O)Nc3ccc(Br)cc3)ccc21`
Outgoing: 100

Incoming: Respond only with inhibition at 10 µM recorded for `CCC1(C(=O)NCc2ccc(Cl)c(Nc3nc4cc(C(=O)Nc5ccc(Br)cc5)ccc4n3C)c2)CCCC1`
Outgoing: 100

Incoming: Input `Cn1c(Nc2cc(CNC(=O)C3(C(F)(F)F)CC3)ccc2Cl)nc2cc(C(=O)NC3CCC(F)(F)CC3)ccc21` , output reported inhibition at 10 µM.
Outgoing: 98

Incoming: Retrieve inhibition at 10 µM measured for `Cn1c(Nc2cc(CNS(=O)(=O)c3cccs3)ccc2Cl)nc2cc(C(=O)Nc3ccc(Br)cc3)ccc21` and print it.
Outgoing: 100

* * *

// values below are reported inhibition at 10 µM
# measured.on: recombinant human mPGES-1 (Homo sapiens)
# Construct: made in house; host or cells: Rosetta E. coli (membrane/microsome fraction)
# assay.remarks: mPGES-1 HTRF assay (inhibition of PGE2 formation from PGH2)
# Format: biochemical
# assay.context: compound concentration of 10 μM, HTRF assay; read-out: % inhibition
Number only, in %; omit the unit.

Examples with answers:
{"columns": ["compound", "inhibition at 10 µM (%)"],
 "data": [
  ["Cn1c(Nc2cc(CNC(=O)C3(C(F)(F)F)CC3)ccc2Cl)nc2cc(C(=O)NCCCC(F)(F)F)ccc21 [Example 53]", 100],
  ["Cn1c(Nc2cc(CNC(=O)c3c(F)cccc3Cl)ccc2Cl)nc2cc(C(=O)Nc3ccc(Br)cc3)ccc21 [Example 36]", 100],
  ["CN(C(=O)c1ccc2c(c1)nc(Nc1cc(CNC(=O)C3(C)CCCCC3)ccc1Cl)n2C)C1CCCC1 [Example 22]", 98]
]}

Please look at the following compound next.
Incoming: Please report the measured inhibition at 10 µM for CC(=O)NCc1ccc(Cl)c(Nc2nc3cc(C(=O)Nc4ccc(Br)cc4)ccc3n2C)c1 [Example 43]
Outgoing: 100
